The reported numbers originate from patent US9045491B2.

Method summary: Safety evaluation: single dose 100 mg/kg by gavage, one week observation
Type: in vivo, ICR mouse
Test conditions: normal ICR mouse, 100 mg/kg single dose, 3 d after administration
Reported food consumption by item:

Compound	food consumption, g · day^−1 · cage^−1
COC(=O)c1cc2nc(N3CCCC(N)C3)n(Cc3ccccc3C#N)c(=O)c2s1 (stereo not shown) [DC291407]	19.0
COC(=O)c1csc2c(=O)n(Cc3ccccc3C#N)c(N3CCC[C@@H](N)C3)nc12 [DC291009]	22.6
N#Cc1ccccc1Cn1c(N2CCC[C@@H](N)C2)nc2cc(C(Br)Br)sc2c1=O [DC291411]	18.8
N#Cc1ccccc1Cn1c(N2CCC[C@@H](N)C2)nc2c(CO)csc2c1=O [DC291004]	21.1
